target: Protein cereblon/Son of sevenless homolog 1 (Homo sapiens, UniProt Q07889+Q96SW2); assay: PROTAC activity at CRBN/SOS1 in human A549 cells assessed as protein degradation at 1 uM incubated for 24 hrs by immunoblot analysis relative to control; format: cell-based
Sequence (Q07889 whole entry, looked up): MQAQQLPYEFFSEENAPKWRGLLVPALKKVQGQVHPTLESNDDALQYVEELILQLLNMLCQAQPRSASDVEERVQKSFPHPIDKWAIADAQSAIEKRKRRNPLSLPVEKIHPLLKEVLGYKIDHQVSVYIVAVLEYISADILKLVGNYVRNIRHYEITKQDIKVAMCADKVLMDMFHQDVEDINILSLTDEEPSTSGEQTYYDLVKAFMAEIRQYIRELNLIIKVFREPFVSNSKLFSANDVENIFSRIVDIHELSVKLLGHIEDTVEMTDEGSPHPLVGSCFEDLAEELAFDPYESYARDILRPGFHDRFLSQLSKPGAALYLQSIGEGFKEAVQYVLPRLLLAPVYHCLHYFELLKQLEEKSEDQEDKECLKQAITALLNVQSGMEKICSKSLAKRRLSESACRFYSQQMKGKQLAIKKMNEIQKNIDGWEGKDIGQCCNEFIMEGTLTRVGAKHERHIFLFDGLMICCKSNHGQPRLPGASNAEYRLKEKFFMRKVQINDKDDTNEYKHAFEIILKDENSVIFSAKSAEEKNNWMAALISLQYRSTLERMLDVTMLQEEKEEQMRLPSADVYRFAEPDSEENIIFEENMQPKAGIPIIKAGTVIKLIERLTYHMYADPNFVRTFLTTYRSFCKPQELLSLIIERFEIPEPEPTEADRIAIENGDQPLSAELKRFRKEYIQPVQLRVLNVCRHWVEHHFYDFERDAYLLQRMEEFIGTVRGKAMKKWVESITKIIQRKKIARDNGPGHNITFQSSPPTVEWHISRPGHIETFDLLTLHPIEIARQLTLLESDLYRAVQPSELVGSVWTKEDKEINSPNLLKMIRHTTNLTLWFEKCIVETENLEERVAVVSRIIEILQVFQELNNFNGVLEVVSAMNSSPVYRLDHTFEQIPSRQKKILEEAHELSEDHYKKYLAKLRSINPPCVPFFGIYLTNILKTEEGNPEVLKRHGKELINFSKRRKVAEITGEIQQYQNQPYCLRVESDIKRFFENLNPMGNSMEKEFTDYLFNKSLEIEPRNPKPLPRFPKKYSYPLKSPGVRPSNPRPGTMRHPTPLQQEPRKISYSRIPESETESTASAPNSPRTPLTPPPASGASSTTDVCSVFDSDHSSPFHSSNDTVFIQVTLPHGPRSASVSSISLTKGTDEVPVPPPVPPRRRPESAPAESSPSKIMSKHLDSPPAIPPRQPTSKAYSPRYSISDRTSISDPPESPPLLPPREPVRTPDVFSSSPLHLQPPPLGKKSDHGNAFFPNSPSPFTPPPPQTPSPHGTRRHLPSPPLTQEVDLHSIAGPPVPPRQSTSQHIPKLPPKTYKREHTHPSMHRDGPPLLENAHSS
Sequence (Q96SW2 whole entry, looked up): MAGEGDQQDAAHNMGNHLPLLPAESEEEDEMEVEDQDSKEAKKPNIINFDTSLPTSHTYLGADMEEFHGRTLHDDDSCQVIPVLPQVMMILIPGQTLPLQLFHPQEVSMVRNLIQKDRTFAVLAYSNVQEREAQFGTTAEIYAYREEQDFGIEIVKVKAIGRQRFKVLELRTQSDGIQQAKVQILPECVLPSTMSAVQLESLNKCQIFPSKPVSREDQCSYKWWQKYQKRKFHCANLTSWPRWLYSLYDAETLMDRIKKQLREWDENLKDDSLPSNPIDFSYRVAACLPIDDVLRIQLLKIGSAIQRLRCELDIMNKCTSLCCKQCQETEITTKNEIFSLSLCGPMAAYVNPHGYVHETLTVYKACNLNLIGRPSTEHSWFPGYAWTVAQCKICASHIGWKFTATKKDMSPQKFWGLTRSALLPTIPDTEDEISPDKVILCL
Property Name: Activity (%)
Just the number in %, nothing appended.

Use these answered entries as a reference point.
COc1cc2nc(C)nc(N[C@H](C)c3cc(N)cc(C(F)(F)F)c3)c2cc1O[C@H]1CCN(C(=O)CCCCCNc2cccc3c2C(=O)N(C2CCC(=O)NC2=O)C3=O)C1 (stereo partly specified) : 5.7
COc1cc2nc(C)nc(N[C@H](C)c3cc(N)cc(C(F)(F)F)c3)c2cc1O[C@H]1CCN(C(=O)CCC(=O)Nc2ccc3c(c2)CN(C2CCC(=O)NC2=O)C3=O)C1 (stereo partly specified) : 0
COc1cc2nc(C)nc(N[C@H](C)c3cc(N)cc(C(F)(F)F)c3)c2cc1O[C@H]1CCN(C(=O)CCC(=O)Nc2ccc3c(c2)C(=O)N(C2CCC(=O)NC2=O)C3)C1 (stereo partly specified) : 20
COc1cc2nc(C)nc(N[C@H](C)c3cc(N)cc(C(F)(F)F)c3)c2cc1O[C@H]1CCN(C(=O)CCCCCNc2ccc3c(c2)C(=O)N(C2CCC(=O)NC2=O)C3=O)C1 (stereo partly specified) : 11.9
COc1cc2nc(C)nc(N[C@H](C)c3cc(N)cc(C(F)(F)F)c3)c2cc1O[C@H]1CCN(C(=O)CCCCC(=O)Nc2cccc3c2CN(C2CCC(=O)NC2=O)C3=O)C1 (stereo partly specified) : 0

Next item in the queue.
Exercise: What value of Activity has been recorded for this entry: COc1cc2nc(C)nc(N[C@H](C)c3cc(N)cc(C(F)(F)F)c3)c2cc1O[C@H]1CCN(C(=O)CC(=O)Nc2ccc3c(c2)CN(C2CCC(=O)NC2=O)C3=O)C1 (stereo partly specified)
Solution: 4
